Target: the molecule itself
Experiment: FRET or BRET; apparent; dimer to monomers; concentration dependence of the A/D ratio in equimolar mixtures of donor- and acceptor-labelled peptide, 20 mM SDS, 40 mM Tris, 8 mM acetate (pH 7.0), 0 – 90 μM peptide, room temperature
Ends that are not written are not given here. Lys‑tag = not defined here
ASSAY_METRIC: pKd
For clarity, pKd is expressed as the negative log10 of concentration in mol/L.

[Q] Recorded pKd for GAIIGLMVGGVVIATVIGITLVML-{Lys‑tag} (not fully specified (N-terminus); reading uncertain, amyloid precursor protein (APP), human, residues 700 to 723 with the familial Alzheimer's disease mutation V717G; Two versions (Trp donor, Glu-EDANS acceptor) as for m1; source: synthetic peptide (solid-phase synthesis, purified by reverse phase C4-HPLC); not shown: oligo-lysine tag (Lys-tag), N-terminal, kept; Trp (donor version) or Glu-EDANS (acceptor version), N-terminal, kept; oligo-lysine …) [V717G APP-TM peptide] , please?
[A] 4.69

[Q] Recorded pKd for GAIIGLMVGGVVIATVIVITLVML-{Lys‑tag} (not fully specified (N-terminus); reading uncertain, amyloid precursor protein (APP), human, residues 700 to 723, contain the TM segment; Two versions were synthesised: Lys-tag-W-(700-723)-Lys-tag (FRET donor) and Lys-tag-E(EDANS)-(700-723)-Lys-tag (FRET acceptor); also called wild-type APP transmembrane domain peptide; source: synthetic peptide (solid-phase synthesis, purified by reverse phase C4-HPLC); not shown: oligo-lysine tag (Lys-tag), …) [wild-type APP-TM peptide] , please?
[A] 4.99

Entry source: paper PMC2266763
